system: T1, human BMP7 (human, UniProt P18075 293-431)
T1 sequence: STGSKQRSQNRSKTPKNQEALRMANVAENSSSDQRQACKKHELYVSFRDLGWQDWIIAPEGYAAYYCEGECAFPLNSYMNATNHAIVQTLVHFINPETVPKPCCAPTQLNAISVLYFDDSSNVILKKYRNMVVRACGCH
experimental-protocol: cell-based or functional assay
measurement-label: RGA max

Some solved cases for reference:
* Antibody 3 (antibody, human IgG1, lambda, V domains shown, germlined clone of NOV0800 (HCDR2-matured NOV0442_VL[Y49,G50,N51S]); human IgG1; back-up antibody; also called NOV0961; NOV961) VH: QVQLVESGGGLVKPGGSLRLSCAASGFTFSSYVVHWVRQAPGKGLEWVGRIKDHKQGYTTAYAASVKGRFTISRDDSKNTLYLQMNSLKTEDTAVYYCARVERSKSGFDNWGQGTLVTVSS VL: QSVLTQPPSVSGAPGQRVTISCTGSSSNIGAGYSVHWYQQLPGTAPKLLIYGSSERPSGVPDRFSGSKSGTSASLAITGLQAEDEADYYCQSWDSSQTLVVFGGGTKLTVLG | 1
* Antibody 5 (antibody, human IgG1, lambda, V domains shown, germlined clone of NOV0787 (HCDR2-matured NOV0442_VL[Y49,G50,N51Q]); human IgG1; lead antibody; also called NOV0951; NOV951) VH: QVQLVESGGGLVKPGGSLRLSCAASGFTFSSYVVHWVRQAPGKGLEWVGRIKRESSSYTTMYAAPVKGRFTISRDDSKNTLYLQMNSLKTEDTAVYYCARVERSKSGFDNWGQGTLVTVSS VL: QSVLTQPPSVSGAPGQRVTISCTGSSSNIGAGYSVHWYQQLPGTAPKLLIYGQSERPSGVPDRFSGSKSGTSASLAITGLQAEDEADYYCQSWDSSQTLVVFGGGTKLTVLG | 1
* Antibody 6 (antibody, human IgG1, lambda, V domains shown, germlined clone of NOV0798 (HCDR2-matured NOV0442_VL[Y49,G50,N51Q]); human IgG1; lead antibody; also called NOV0954; NOV954) VH: QVQLVESGGGLVKPGGSLRLSCAASGFTFSSYVVHWVRQAPGKGLEWVGRTRHSDMGYATSYAAPVKGRFTISRDDSKNTLYLQMNSLKTEDTAVYYCARVERSKSGFDNWGQGTLVTVSS VL: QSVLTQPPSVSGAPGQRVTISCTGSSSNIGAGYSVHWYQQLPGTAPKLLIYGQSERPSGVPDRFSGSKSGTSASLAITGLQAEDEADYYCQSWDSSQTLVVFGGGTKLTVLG | 0.9

## Input Need RGA max of Antibody 7 (antibody, human IgG1, lambda, V domains shown, germlined clone of NOV0806 (HCDR2-matured NOV0442_VL[Y49,G50,N51Q]); human IgG1; final lead; also called NOV0958; NOV958) VH: QVQLVESGGGLVKPGGSLRLSCAASGFTFSSYVVHWVRQAPGKGLEWVGRIRLETHGYAAEYAASVKGRFTISRDDSKNTLYLQMNSLKTEDTAVYYCARVERSKSGFDNWGQGTLVTVSS VL: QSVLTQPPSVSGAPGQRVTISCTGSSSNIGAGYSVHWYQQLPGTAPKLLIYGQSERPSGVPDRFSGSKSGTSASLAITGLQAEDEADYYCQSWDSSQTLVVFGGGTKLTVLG , thanks.
## Output 0.9
